Let's look at some compounds and their measured pEC50.
measured on: DGKalpha (Homo sapiens)
Sequence (P23743 whole entry): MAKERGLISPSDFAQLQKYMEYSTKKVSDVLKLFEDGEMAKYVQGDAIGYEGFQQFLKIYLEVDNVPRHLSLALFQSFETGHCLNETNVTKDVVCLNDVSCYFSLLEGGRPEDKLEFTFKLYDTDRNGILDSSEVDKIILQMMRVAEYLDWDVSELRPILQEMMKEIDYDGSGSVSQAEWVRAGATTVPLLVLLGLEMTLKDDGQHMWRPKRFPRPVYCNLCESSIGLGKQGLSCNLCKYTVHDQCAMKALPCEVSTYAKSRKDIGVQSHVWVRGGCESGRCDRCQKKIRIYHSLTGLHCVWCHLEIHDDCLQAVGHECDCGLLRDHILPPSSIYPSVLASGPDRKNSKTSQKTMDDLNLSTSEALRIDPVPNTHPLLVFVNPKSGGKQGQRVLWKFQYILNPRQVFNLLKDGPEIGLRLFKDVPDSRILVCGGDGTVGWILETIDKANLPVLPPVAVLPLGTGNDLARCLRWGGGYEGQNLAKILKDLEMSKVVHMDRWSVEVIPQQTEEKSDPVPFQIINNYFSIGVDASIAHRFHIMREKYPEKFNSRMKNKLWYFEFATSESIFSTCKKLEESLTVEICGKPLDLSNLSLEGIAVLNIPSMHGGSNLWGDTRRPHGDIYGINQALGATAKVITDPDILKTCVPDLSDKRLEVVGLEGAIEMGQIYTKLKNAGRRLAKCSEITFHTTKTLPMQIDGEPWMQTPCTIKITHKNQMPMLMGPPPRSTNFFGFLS
assay info: Translocation DGKalpha
pEC50: −log10 of the molar value.

// below: answered compounds
[in] Tell me measured pEC50 for Cn1c(=O)cc(N(CC2CC2)c2ccc(C3CC3)c(-c3ccccc3)c2)c2nc(C#N)ccc21 [Example 122] please.
[out] < 5.52

[in] Quote pEC50 reported for Cn1c(=O)cc(N(CC2CC2)c2ccc(C3CC3)c(-c3ccc(C4CC4)cc3)c2)c2nc(C#N)ccc21 [Example 125] please.
[out] < 5.52

[in] In one line, give reported pEC50 of the entry Cn1c(=O)cc(N(CC2CC2)c2ccc(OC(F)F)nc2)c2nc(C#N)ccc21 [Example 112] .
[out] < 5.52

[in] Identify measured pEC50 corresponding to Cn1c(=O)cc(N(CC2CC2)c2ccc(OC(F)F)cn2)c2nc(C#N)ccc21 [Example 123]
[out] < 5.52

[in] Give me measured pEC50, please, for this compound: Cn1c(=O)cc(N(CC2CC2)c2ccc(C3CC3)c(-c3ccc(N4CCOCC4)cc3)c2)c2nc(C#N)ccc21 [Example 124]
[out] 5.60

[in] Kindly indicate its recorded pEC50. Item: Cn1c(=O)cc(N(CC2CC2)c2ccc(C3CC3)c(-c3ccc(Cl)cc3)c2)c2nc(C#N)ccc21 [Example 128]
[out] < 5.52

***
[in] Answer with reported pEC50 of Cn1c(=O)cc(N(CC2CC2)c2ccc(C3CC3)nc2)c2nc(C#N)ccc21 [Example 114]
[out] < 5.52

[in] Hello, please tell me recorded pEC50 for this one: Cn1c(=O)cc(N(CC2CC2)c2ccc(C3CC3)c(-c3ccc(OCC4CC4)cc3)c2)c2nc(C#N)ccc21 [Example 131]
[out] < 5.52

[in] Given Cn1c(=O)cc(N(CC2CC2)c2ccc(Br)cc2)c2nc(C#N)ccc21 [Example 18] , respond with its pEC50.
[out] 5.57

[in] Name the recorded pEC50 of the compound listed here: Cn1c(=O)cc(N(CC2CC2)c2ccc(C3CC3)c(-c3ccc(F)cc3)c2)c2nc(C#N)ccc21 [Example 127]
[out] < 5.52
